Origin of values: patent US7135466B2

target-system: PDGF-Ra (Homo sapiens, UniProt P16234)
Construct: host or cells: G-292 human osteosarcoma cells
Sequence (P16234 24-1089): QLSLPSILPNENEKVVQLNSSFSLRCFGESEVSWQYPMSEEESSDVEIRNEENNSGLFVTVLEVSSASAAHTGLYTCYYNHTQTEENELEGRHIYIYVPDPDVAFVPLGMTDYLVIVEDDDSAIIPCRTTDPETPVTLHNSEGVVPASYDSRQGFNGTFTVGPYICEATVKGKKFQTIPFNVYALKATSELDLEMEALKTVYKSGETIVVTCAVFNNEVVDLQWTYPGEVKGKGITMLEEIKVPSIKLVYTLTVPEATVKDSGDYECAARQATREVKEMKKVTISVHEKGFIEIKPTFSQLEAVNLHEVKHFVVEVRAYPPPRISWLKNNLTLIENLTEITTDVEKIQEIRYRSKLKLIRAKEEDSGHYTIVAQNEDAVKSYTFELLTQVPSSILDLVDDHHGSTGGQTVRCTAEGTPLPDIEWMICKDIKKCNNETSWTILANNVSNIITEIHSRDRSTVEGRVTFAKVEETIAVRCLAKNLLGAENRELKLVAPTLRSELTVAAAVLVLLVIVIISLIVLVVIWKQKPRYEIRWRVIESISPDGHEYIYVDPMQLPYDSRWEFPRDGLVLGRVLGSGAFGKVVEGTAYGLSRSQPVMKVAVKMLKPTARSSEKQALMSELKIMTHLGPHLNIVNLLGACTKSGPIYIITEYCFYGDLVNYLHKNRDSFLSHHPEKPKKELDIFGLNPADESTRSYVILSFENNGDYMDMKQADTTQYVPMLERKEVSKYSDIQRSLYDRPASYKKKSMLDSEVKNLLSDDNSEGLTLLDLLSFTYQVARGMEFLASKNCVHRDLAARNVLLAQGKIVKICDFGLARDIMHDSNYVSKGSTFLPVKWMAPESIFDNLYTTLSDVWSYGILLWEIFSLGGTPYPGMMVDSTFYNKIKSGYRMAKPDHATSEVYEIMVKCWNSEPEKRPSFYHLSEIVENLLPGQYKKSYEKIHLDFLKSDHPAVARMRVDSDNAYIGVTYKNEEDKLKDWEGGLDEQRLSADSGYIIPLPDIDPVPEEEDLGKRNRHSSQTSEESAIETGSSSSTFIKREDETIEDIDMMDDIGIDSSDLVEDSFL
protocol-details: Inhibitory activity against PDGF-Ra phosphorylation by PDGF-AA stimulation using G292
Assay type: cell-based
assay-conditions: G292; figure within parentheses in >100( ); at 100 nM; read-out: PDGF (E) inhibition (%) at 100 nM
measurement-label: inhibition at 0.1 µM (%)

> print(dat)
                                   compound  unit.of.measurement  recorded.number
1  COc1cc2nccc(Oc3ccc(NC(=S)NC(=O)C(OC)c4ccccc4)cc3)c2cc1OC (stereo not shown)                    %               37
2  CCCC(CCN1CCN(C)CC1)OC(=O)Nc1ccc(Oc2ccnc3cc(OC)c(OC)cc23)c(C)c1C (stereo not shown)                    %               25
3  CCCC(CCN1CCCCC1)OC(=O)Nc1ccc(Oc2ccnc3cc(OC)c(OC)cc23)cc1 (stereo not shown)                    %               11

[P] COc1cc2nccc(Oc3cc(C)c(NC(=O)OCCCN4CCN(C)CC4)cc3C)c2cc1OC
[Q] COc1cc2nccc(Oc3ccc(NC(=O)NC4CCN(Cc5ccccc5)CC4)cc3F)c2cc1OC
Challenge: When P and Q are compared, which has the higher number for inhibition at 0.1 µM? # reply format: chosen label
Response given: Q
(Q: 29%, P: 5%)

----------
target-system: c-kit (Homo sapiens)
Construct: MO7e (human megakaryocytic leukemia cell line) which had been arrested for 20 hr; endogenous in cells; host or cells: MO7e human megakaryocytic leukemia cell line
Sequence (P10721 26-976): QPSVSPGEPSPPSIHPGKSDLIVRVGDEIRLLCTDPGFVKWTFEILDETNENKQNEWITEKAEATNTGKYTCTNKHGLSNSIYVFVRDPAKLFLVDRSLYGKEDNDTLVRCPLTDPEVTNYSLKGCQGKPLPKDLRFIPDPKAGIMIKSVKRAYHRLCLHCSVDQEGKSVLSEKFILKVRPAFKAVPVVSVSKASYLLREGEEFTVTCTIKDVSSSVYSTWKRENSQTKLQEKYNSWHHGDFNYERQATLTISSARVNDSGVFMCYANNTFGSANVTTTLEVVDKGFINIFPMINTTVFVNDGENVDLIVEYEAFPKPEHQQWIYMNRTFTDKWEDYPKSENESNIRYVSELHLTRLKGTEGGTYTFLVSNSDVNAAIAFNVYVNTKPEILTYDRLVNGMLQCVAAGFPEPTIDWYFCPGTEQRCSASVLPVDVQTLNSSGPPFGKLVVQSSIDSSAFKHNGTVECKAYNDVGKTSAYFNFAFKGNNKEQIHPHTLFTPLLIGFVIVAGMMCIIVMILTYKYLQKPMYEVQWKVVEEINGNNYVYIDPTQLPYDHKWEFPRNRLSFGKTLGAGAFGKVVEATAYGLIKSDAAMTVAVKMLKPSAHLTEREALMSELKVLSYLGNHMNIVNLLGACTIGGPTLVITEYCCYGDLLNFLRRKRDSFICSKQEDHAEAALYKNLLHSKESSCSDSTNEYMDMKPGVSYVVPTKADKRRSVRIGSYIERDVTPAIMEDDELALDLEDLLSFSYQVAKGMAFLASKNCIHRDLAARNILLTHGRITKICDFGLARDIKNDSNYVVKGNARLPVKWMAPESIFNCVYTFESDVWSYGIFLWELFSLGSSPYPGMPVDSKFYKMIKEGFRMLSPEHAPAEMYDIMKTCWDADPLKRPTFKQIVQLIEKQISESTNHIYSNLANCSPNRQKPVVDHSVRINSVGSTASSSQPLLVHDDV
protocol-details: Inhibitory activity against c-kit autophosphorylation (MO7e cells, h-SCF)
Assay type: cell-based
assay-conditions: Mo7e, figure within parentheses in −( ) or >1000( ); at 1000 nM
measurement-label: inhibition at 1 µM (%)

Illustrative cases are given below, each with its answer.
> print(dat)
                                   compound  recorded.number
1  CCCCC(CCCC)OC(=O)Nc1ccc(Oc2ncnc3cc(OC)c(OC)cc23)cc1[N+](=O)[O-] [Example 508]               28
2  COc1cc2nccc(Oc3ccc(NC(=O)NN4CCCCC4)c(F)c3)c2cc1OC [Example 613]               29
3  CCN(C(=O)OC1CCCCC1)c1ccc(Oc2ncnc3cc(OC)c(OC)cc23)cc1Cl [Example 475]               24
4  COc1cc2nccc(Oc3ccc(NC(=O)NC4CCN(Cc5ccccc5)CC4)c([N+](=O)[O-])c3)c2cc1OC [Example 638]               16

[1] COc1cc2ncnc(Oc3ccc(N(C)C(=O)OCc4ccccc4Cl)c(Cl)c3)c2cc1OC [Example 480]
[2] COc1cc2ncnc(Oc3ccc(N(C)C(=O)OC4CCCCCC4)c(Cl)c3)c2cc1OC [Example 482]
[3] COc1cc2ncnc(Oc3ccc(NC(=O)NC4CCN(Cc5ccc(C(C)(C)C)cc5)C4)c([N+](=O)[O-])c3)c2cc1OC (stereo not shown) [Example 584]
Challenge: List from greatest to least inhibition at 1 µM. A complete answer lists every label in the requested sequence.
Response given: 1, 3, 2
(1: 22%, 3: 13%, 2: 5%)
